- Tested on: PC49
- Protocol: qHTS profiling for inhibitors of Plasmodium falciparum proliferation (AID 504749); also: nearly all actives have a fitted effect of over 60% in size
- Conditions: P. falciparum in erythrocytes, SYBR Green DNA, 72 h; series mostly up to 28.7 µM
Inconclusive results are not listed. The source made the active and inactive calls. Calls follow the shape of the dose curve; as a rule, active = well fitted inhibition curve with a large enough effect; inconclusive = small, poorly fitted or top-dose-only effect; inactive = flat fitted curve, though single readings scatter.
Outcome codes: yes for active, no for inactive

1. COc1ccc(C(=O)N2CCCC2=O)cc1 | no
2. COP(=O)(OC)OC=C(Cl)Cl | no
3. CNC(=O)Oc1cccc2ccccc12 | no
4. CCN(CC)C(C)C(=O)c1ccccc1 (stereo not given) | no
5. CCOC(=O)NC(O)C(Cl)(Cl)Cl (stereo not given) | no
6. CCN(Cc1ccc(Cl)nc1)/C(=C/[N+](=O)[O-])NC | no
7. C[C@]12C=CC(=O)C=C1CC[C@@H]1[C@@H]2CC[C@@]2(C)[C@H]1CC[C@]2(C)O | no
8. COCC(=O)N(c1c(C)cccc1C)C(C)C(=O)OC (stereo not given) | no
9. CN(C)C(=S)SSC(=S)N(C)C | yes
10. CC(C)(O)C(Cl)(Cl)Cl | yes

====

- Tested on: HEK293
- Protocol: Cytotoxic Profiling of Annotated Libraries Using Quantitative High-Throughput Screening (AID 1296008); also: % is scaled to controls: 0 for no effect and ±100 for the full control effect; nearly all actives have a fitted effect of over 60% in size
- Conditions: Five cell lines viability, CellTiter-Glo ATP luminescence, 48-72 h; active compounds read low
Results filed as inconclusive are left out.
Property Name: max response (%)

1. COc1cc(CC(C)N)cc2c1OCO2 (stereo not drawn) | -16.7
2. CCOC(=O)c1ncn2c1CN(C)C(=O)c1c(I)cccc1-2 | -11.8
3. O=C(O)CCCCCCNC1c2ccccc2CCc2ccccc21 | 2.21

====

- Conditions: Ebola virus entry assay, green fluorescence channel
Measured potencies and affinities stand elsewhere.
Property Name: efficacy (%)

1) C[C@@H]1CC[C@@]2(OC1)O[C@H]1C[C@H]3[C@@H]4CC[C@H]5C[C@@H](O)CC[C@]5(C)[C@H]4CC(=O)[C@]3(C)[C@H]1[C@@H]2C | 21.9
2) CN1CCN(CCC(=O)N2c3ccccc3Sc3ccc(C(F)(F)F)cc32)CC1 | 68.9
3) Cc1cc(C)c(/C=C2\C(=O)Nc3ccccc32)[nH]1 | 78.6
4) CC(=O)O[C@]1(C(C)=O)CC[C@H]2[C@@H]3C=C(Cl)C4=CC(=O)CC[C@]4(C)[C@H]3CC[C@@]21C | 83.2
5) CCC(=O)c1ccc2c(c1)N(CCCN(C)C)c1ccccc1S2 | 153
6) O=C1CC2(CCCC2)CC(=O)N1CCNCC1COc2ccccc2O1 (stereo unspecified) | 16.2
7) CN1CCc2cc(Cl)c(O)cc2[C@H]2c3ccccc3CC[C@@H]21 | 24
8) CC(C)C[C@@H]1[C@H](c2ccccc2)OC(=O)N1CCCN1CCCCCC1 | 64.2
9) CC[C@H](O)C(C[C@H](C)N(C)C)(c1ccccc1)c1ccccc1 | 49.4
10) NC(=O)CCCCC1CCSS1 (stereo unspecified) | 19.1
11) CCc1ccc(C2CCNCC2)cc1 | 65.4

====

- Conditions: Ebola virus entry assay, ratio channel
Activity calls are given as the source filed them. No rule for the calls is given here.
Outcome codes: 1 (yes) for active, 0 (no) for inactive

1) C[C@]12CC[C@@H]3c4ccc(O)cc4CC[C@H]3[C@@H]1CCC2=O | 1 (yes)
2) COC[C@@H](c1ccc(C(F)(F)F)cc1)N1CCN(C2(C)CCN(C(=O)c3c(C)ncnc3C)CC2)C[C@H]1C | 1 (yes)
3) CN(C)C/C=C(/c1ccc(Br)cc1)c1cccnc1 | 0 (no)
4) CC(C)=CCN1CC[C@@]2(C)c3cc(O)ccc3C[C@@H]1[C@@H]2C | 1 (yes)
5) O=C(O)c1cccnc1Nc1cccc(C(F)(F)F)c1 | 0 (no)
6) Cc1ccc2c(c1)c1c3n2CCNC3CCC1 (configuration not stated) | 1 (yes)
7) CCOC(=O)C(C#N)=C(c1ccccc1)c1ccccc1 | 0 (no)
8) Clc1ccc(Nc2nnc(Cc3ccncc3)c3ccccc23)cc1 | 0 (no)
9) O=C(N[C@@H]1N=C(c2ccccc2F)c2cccc3c2N(CC3)C1=O)c1cc2ccccc2[nH]1 | 1 (yes)
10) CNc1c2c(nn1C)CCCC2 | 0 (no)
11) CCCCOC(=O)CCCCCCCCC(=O)OCCCC | 0 (no)
12) O=C(CBr)Nc1ccc(Cl)cc1C(=O)c1ccccc1F | 1 (yes)
13) Cc1ccc([N+](=O)[O-])[c]2c1[O][Hg]2 | 1 (yes)
14) C#C[C@]1(O)CC[C@H]2[C@@H]3CCC4=CC(=O)CC[C@@H]4[C@H]3CC[C@@]21C | 0 (no)
15) CCCOC(=O)Cc1ccc(OCC(=O)N(CC)CC)c(OC)c1 | 0 (no)
16) CC(=O)Oc1ccc2c(c1)CC[C@@H]1[C@@H]2CC[C@]2(C)[C@@H](O)CC[C@@H]12 | 1 (yes)
17) Nc1c2c(nc3c1CCC3)CCCC2 | 0 (no)

====

- Conditions: Ebola virus entry assay, reporter ratio channel; Channel type: primary
Active and inactive are the calls of the source. How the calls were made is not given here.
Possible outcomes: active, inactive

1) CCOc1c(N2CCOCC2)cnn(C)c1=O | inactive
2) CCCCCN(CCCCC)C(=O)C(CCC(=O)O)NC(=O)c1ccc(Cl)c(Cl)c1 (stereo not drawn) | inactive
3) CNC(=O)c1cnn(-c2nc(N)c3ncn([C@@H]4O[C@H](CO)[C@@H](O)[C@H]4O)c3n2)c1 | inactive
4) O=c1[nH]c(=O)c2[nH]c(=O)[nH]c2[nH]1 | inactive
5) CN1[C@@H]2CC[C@H]1CC(NC(=O)n1c(=O)[nH]c3ccccc31)C2 (stereo partly drawn) | inactive
6) CCOC(=O)[C@H](CCc1ccccc1)N[C@H]1CS[C@H](c2cccs2)CN(CC(=O)O)C1=O | inactive
7) COc1cc(NS(=O)(=O)c2ccc(N)cc2)ncn1 | inactive
8) Oc1ccc2[nH]cc(CCCCN3CC=C(c4ccccc4)CC3)c2c1 | active
9) NC1(c2ccccc2)CCCCC1 | active
10) C[C@H](N)[C@H](O)c1cccc(O)c1 | inactive
11) CCCCCCCCCCCCCCCC[N+](C)(C)Cc1ccccc1 | active
12) N=C(N)c1ccc(OCCCOc2ccc(C(=N)N)cc2)cc1 | inactive
13) O=C(NC(=O)c1c(F)cccc1F)Nc1cc(Cl)c(OC(F)(F)C(F)C(F)(F)F)cc1Cl (stereo not drawn) | active

====

- System: ATS95
- Protocol: qHTS profiling for inhibitors of Plasmodium falciparum proliferation (AID 504749); also: nearly all actives have a fitted effect of over 60% in size
- Conditions: P. falciparum in erythrocytes, SYBR Green DNA, 72 h; series mostly up to 28.7 µM
Inconclusive results are not listed. The source made the active and inactive calls. Calls follow the shape of the dose curve; as a rule, active = well fitted inhibition curve with a large enough effect; inconclusive = small, poorly fitted or top-dose-only effect; inactive = flat fitted curve, though single readings scatter.
Outcome codes: label 1 (active), label 0 (inactive)

1. CC(C)[N+](C)(CCC(C(N)=O)(c1ccccc1)c1ccccc1)C(C)C | label 0
2. ClC1=C(Cl)C2(Cl)C(CBr)CC1(Cl)C2(Cl)Cl (stereo unspecified) | label 0
3. C[C@]12C=CC(=O)C=C1CC[C@@H]1[C@@H]2CC[C@@]2(C)[C@H]1CC[C@]2(C)O | label 0
4. C[C@]12CC[C@H]3[C@@H](CC=C4C[C@@H](O)CC[C@@]43C)[C@@H]1CC[C@@H]2O | label 0
5. O=c1n(Cl)c(=O)n(Cl)c(=O)n1Cl | label 0
6. COc1ccc(C(=O)N2CCCC2=O)cc1 | label 0
7. C#C[C@]1(O)CC[C@H]2[C@@H]3CCC4=CC(=O)CCC4=C3C=C[C@@]21CC | label 1
8. C[C@]12Cc3nonc3C[C@@H]1CC[C@@H]1[C@@H]2CC[C@@]2(C)[C@H]1CC[C@]2(C)O | label 0
9. CCN(Cc1ccc(Cl)nc1)/C(=C/[N+](=O)[O-])NC | label 0
10. CC(C)(C)OC(=O)c1ncn2c1[C@@H]1CCCN1C(=O)c1c(Br)cccc1-2 | label 0
11. O=C(O)c1nn(Cc2ccc(Cl)cc2Cl)c2ccccc12 | label 0
12. COP(=O)(OC)OC=C(Cl)Cl | label 0
13. CN1C(=O)CN=C(c2ccccc2)c2cc([N+](=O)[O-])ccc21 | label 0
14. CCC1(c2ccccc2)CCC(=O)NC1=O (stereo unspecified) | label 0
15. COP(=O)(OC)C(O)C(Cl)(Cl)Cl (stereo unspecified) | label 0
16. CC(C)NCC(O)c1ccc(N)c(C#N)c1 (stereo unspecified) | label 0

====

- Protocol: Primary qHTS for inhibitors of MERS-S pseudo-typed particle cell entry (AID 1479149); also: nearly all actives have a fitted effect of over 60% in size
- Conditions: MERS-S pseudotyped particle entry, luciferase; series mostly up to 57.1 µM
Records with an inconclusive call do not appear. Activity calls are given as the source filed them. Calls come from the whole dose curve.
Outcome codes: 1 for active, 0 for inactive

1) CC1(C)[C@@H]2CC[C@@]1(C)C(=O)C2 | 0
2) CC(=O)Oc1ccc2c(c1)CC[C@@H]1[C@@H]2CC[C@]2(C)[C@@H](O)CC[C@@H]12 | 0
3) CCOC(=O)[C@H](CCc1ccccc1)N[C@H]1CS[C@H](c2cccs2)CN(CC(=O)O)C1=O | 0
4) Cc1ccc(Nc2c(F)cccc2Cl)c(CC(=O)O)c1 | 0
5) O=C(Oc1cccc2cccnc12)c1ccccc1 | 1
6) CCN[C@H]1C[C@H](C)S(=O)(=O)c2sc(S(N)(=O)=O)cc21 | 0
7) NC(=O)CCCCC1CCSS1 (configuration not stated) | 0
8) CCn1cc(C(=O)O)c(=O)c2cc(F)c(N3CCNCC3)nc21 | 0
9) CC(O)COc1ccccc1 (configuration not stated) | 0
10) N#Cc1cc(NC(=O)C(=O)O)c(Cl)c(NC(=O)C(=O)O)c1 | 0
11) CC(=O)OC[C@H]1O[C@@](COC(C)=O)(O[C@H]2O[C@H](COC(C)=O)[C@@H](OC(C)=O)[C@H](OC(C)=O)[C@H]2OC(C)=O)[C@@H](OC(C)=O)[C@@H]1OC(C)=O | 0
12) CCOC(=O)NNc1nncc2ccccc12 | 0
13) CC(=O)OCC(=O)[C@@]1(O)CC[C@H]2[C@@H]3CCC4=CC(=O)C=C[C@]4(C)[C@H]3[C@@H](O)C[C@@]21C | 0
14) CCCOc1ccc2nc(NC(=O)OC)[nH]c2c1 | 0
15) CC(=O)OCC(=O)[C@@]12N=C(C)O[C@@H]1C[C@H]1[C@@H]3CCC4=CC(=O)C=C[C@]4(C)[C@H]3[C@@H](O)C[C@@]12C | 0
16) CC1(C)[C@@H](OC(=O)CCC(=O)O)CC[C@]2(C)[C@H]3C(=O)C=C4[C@@H]5C[C@@](C)(C(=O)O)CC[C@]5(C)CC[C@@]4(C)[C@]3(C)CC[C@@H]12 | 0
17) C=Cc1c(C)c2cc3[nH]c(cc4nc(cc5nc(cc1[nH]2)C(C)=C5CCC(=O)O)C(CCC(=O)O)=C4C)c(C)c3C=C | 0
18) Cc1cccc(CN2CCN(C(c3ccccc3)c3ccc(Cl)cc3)CC2)c1 (configuration not stated) | 0
19) CN(C)C(=S)SC(=S)N(C)C | 1
20) O=C(O)c1ccc(OCCCOc2ccc(C(=O)O)cc2)cc1 | 0
21) CC(=O)N[C@H]1[C@H]([C@H](O)[C@H](O)CO)OC(C(=O)O)=C[C@@H]1N=C(N)N | 0
22) CN1[C@@H]2CC[C@H]1CC(NC(=O)n1c(=O)[nH]c3ccccc31)C2 (some centres not stated) | 0
23) CN(C)CC/C=C1\c2ccccc2Sc2ccc(Cl)cc21 | 1
24) C[C@]12CC[C@H](O)CC1=CC[C@@H]1[C@@H]2CC[C@]2(C)C(=O)CC[C@@H]12 | 0
25) CC(CC(C(N)=O)(c1ccccc1)c1ccccc1)N(C)C (configuration not stated) | 0
26) COP(=S)(OC)Oc1ccc(S(N)(=O)=O)cc1 | 0
27) CCOC(CN1CCN(CC(C)C(=O)c2ccccc2)CC1)c1ccccc1 (configuration not stated) | 0
28) Nc1ccccc1C(=O)OCC(O)CO (configuration not stated) | 0
29) CCC(=O)O[C@H]1CC[C@H]2[C@@H]3CCC4=CC(=O)CC[C@]4(C)[C@H]3CC[C@]12C | 0
30) CC(=O)OCC(=O)Nc1cc(C#N)cc(NC(=O)COC(C)=O)c1Cl | 0
31) O=C(O)C(=O)Nc1cccc(-c2nn[nH]n2)c1 | 0
32) Cc1cc(C(C)(C)C)c(O)c(C)c1CC1=NCCN1 | 0
33) C[C@]12C=CC(=O)C=C1CC[C@H]1[C@@H]3C[C@@H](O)[C@](O)(C(=O)CO)[C@@]3(C)C[C@H](O)[C@@]12F | 0
34) O=C1NCCN1CCN1CCC(c2cn(-c3ccc(F)cc3)c3ccc(Cl)cc23)CC1 | 1
35) CCN(CC)Cc1nccn1-c1ccc([N+](=O)[O-])cc1C(=O)c1ccccc1Cl | 0
36) NC(N)=NC(=O)c1nc(Cl)c(N)nc1N | 0
37) CN1C(=O)CC(c2ccccc2)C1=O (configuration not stated) | 0
